experiment: basal HepG2 mitochondrial membrane potential changes, profiling panel, cell-based, JC-1 fluorescence, 24 h, 100 nL compound (AID 1167); details: higher = more signal; note: test concentration not given here
PARAMETER_MEASURED: z-score
Keep the answer to the number alone.

Tell me measured z-score for COc1ccc([Si](C)(C)[C@@H]2[C@@H](CC(=O)N3CCC[C@H]3CO)O[C@]3(C(=O)N(Cc4ccc(N5C(=O)c6cccc7cccc5c67)cc4)c4ccccc43)[C@H]2C)cc1 please.
-1.18

Tell me measured z-score for COC1(C)CN(Cc2ccccc2Br)[C@H](/C=C/c2ccccc2)[C@H](Cc2ccccc2)O1 (some centres undefined) please.
-0.545

Tell me measured z-score for CN(C)CCCN1C(=O)[C@@]2(c3ccc([N+](=O)[O-])cc3)CC(=O)N(CC34CC5CC(CC(C5)C3)C4)[C@@H]2c2ccc(CO)cc21 please.
0.474

Tell me measured z-score for NC(=O)N1C(=O)C2C(C1=O)C1C=C(c3ccc(CO)cc3)C2C(C2CC2)N1Cc1sc2ccccc2c1Cl (centres undefined) please.
0.159

Tell me measured z-score for NCCCCCNC(=O)[C@@H]1C[C@@H]2C(=O)N[C@@H](CCCCN)C(=O)N2[C@@H]1c1cccc(OCCO)c1 please.
0.0184

Tell me measured z-score for CC(C)(C)OC(=O)CC[C@@]1(C(=O)O)N=C(c2ccc(OCCCO)cc2)O[C@@H]1c1ccccc1 please.
-0.602

Tell me measured z-score for COCCOC(=O)N1C(=O)[C@@]2(c3cc(C#CC4(O)CCCCCC4)ccc31)[C@H](C(N)=O)[C@H]1C(=O)O[C@H](c3ccccc3)[C@H](c3ccccc3)N1[C@@H]2c1ccc(O)cc1 please.
-0.0298

Tell me measured z-score for NCCCCCCNC(=O)[C@@H]1C[C@@H]2C(=O)N3CCC[C@H]3C(=O)N2[C@@H]1c1ccc(O)cc1 please.
-0.0719

Tell me measured z-score for CC(=O)n1cc(C(O)C2C=CC3C(=O)N(c4ccccc4)C(=O)C3N2Nc2ccccc2)c2ccccc21 (centres undefined) please.
-2.16

Tell me measured z-score for CN1C(=O)C2C=CC(C(O)c3c(F)cccc3Cl)N(Nc3ccccc3)C2C1=O (centres undefined) please.
-1.4

Tell me measured z-score for COc1c(C)cc(-c2cc3c(c(-c4ccccc4)n2)[Si](C(C)C)(C(C)C)OC3)cc1C please.
-0.759

Tell me measured z-score for COCCOC(=O)N1C(=O)[C@@]2(c3cc(C#CC4(O)CCCCCC4)ccc31)[C@H](C(N)=O)[C@H]1C(=O)O[C@H](c3ccccc3)[C@H](c3ccccc3)N1[C@@H]2c1ccccc1OCCO please.
-2.32

Tell me measured z-score for COc1cc(CO)cc(I)c1O[C@H]1C=C(C(=O)NCCO)C[C@@H](NCc2ccccc2F)[C@@H]1O please.
-0.0312

Tell me measured z-score for COc1c(C)cc(-c2cc3c(c(Cc4ccccc4)n2)[Si](C(C)C)(C(C)C)OC3)cc1C please.
-1

Tell me measured z-score for CN(C)CCCNC(=O)[C@@]1(c2ccc([N+](=O)[O-])cc2)CC(=O)N(CC23CC4CC(CC(C4)C2)C3)[C@@H]1c1ccc(CO)cc1 please.
-1.58

Tell me measured z-score for Cc1ccc(S[C@]2(C(=O)NC3CC3)CC(=O)N(Cc3ccccc3Cl)[C@@H]2c2ccc(CO)cc2I)cc1 please.
0.474

Tell me measured z-score for CN(C)CCCNC(=O)[C@@H]1c2ccccc2C(=O)N(Cc2ccc(OC(F)(F)F)cc2)[C@H]1c1ccc(CO)cc1 please.
3.72

Tell me measured z-score for COCCOC(=O)N1C(=O)[C@@]2(c3cc(C#Cc4ccc(OC)cc4)ccc31)[C@H](C(=O)N1CCN(c3ncccn3)CC1)[C@H]1C(=O)O[C@H](c3ccccc3)[C@H](c3ccccc3)N1[C@@H]2c1ccccc1OCCO please.
0.57

Tell me measured z-score for CCOC(=O)C1=C[C@@H](c2ccccc2)N(S(=O)(=O)c2ccc(C)cc2)[C@H]1c1cccc(Cl)c1 please.
2.04

Tell me measured z-score for CC(C)C(O)C1C=CC2C(=O)N(C)C(=O)C2N1Nc1ccccc1 (centres undefined) please.
-0.993

Tell me measured z-score for CC(C)C(=C=CC[C@@H](O)c1ccccc1OCCO)C[C@@H](O)COCc1ccccc1 please.
0.324

Tell me measured z-score for CCOC(=O)C1=CC[C@@H](c2ccccc2)N(S(=O)(=O)c2ccc(C)cc2)C1 please.
0.546

Tell me measured z-score for COc1ccc(NN2C(C(O)c3ccco3)C=CC3C(=O)N(C4CCCCC4)C(=O)C32)cc1 (centres undefined) please.
0.526

Tell me measured z-score for C=C1C2CC3C(=C4C(CO[C@@H]4[C@H]4CCCN4S(=O)(=O)c4ccccc4[N+](=O)[O-])C4C(=O)N(C)C(=O)C34)CC2C(=O)N1C (some centres undefined) please.
-1.83

Tell me measured z-score for CC(=O)n1cc(C(O)C2C=CC3C(=O)N(Cc4ccccc4)C(=O)C3N2n2cnnc2)c2ccccc21 (centres undefined) please.
-1.07

Tell me measured z-score for CC(C)CCC[C@@H](C)[C@H]1CC[C@@]2(C)C3=C(CC[C@]12C)[C@@]1(C)CC[C@H](OC(=O)c2ccc(Br)cc2)C(C)(C)C1CC3 (some centres undefined) please.
1.14

Tell me measured z-score for C=CCNC(=O)[C@@H]1[C@H]2C(=O)O[C@H](c3ccccc3)[C@H](c3ccccc3)N2[C@H](c2ccccc2OCCO)[C@@]12C(=O)N(C(=O)OCCOC)c1ccc(C#CC3=CCCCC3)cc12 please.
-0.149

Tell me measured z-score for COCCOC(=O)N1C(=O)[C@@]2(c3cc(C#CC4=CCCCC4)ccc31)[C@H](c1ccc(O)cc1)N1[C@H](c3ccccc3)[C@H](c3ccccc3)OC(=O)[C@H]1[C@@H]2C(=O)Nc1nc2ccccc2s1 please.
-2.79

Tell me measured z-score for CC(C)(C)OC(=O)CC[C@]1(C(=O)NCCN2CCOCC2)N=C(c2ccc(OCCCO)cc2)O[C@H]1c1ccccc1 please.
-0.342
